Each item that follows carries a reported % residual binding.
# assayed_system: T1, biotinylated CD32bECDHis (human, UniProt P31994 43-223, limits assumed, biotinylated (sites not given))
# T1 sequence (looked up): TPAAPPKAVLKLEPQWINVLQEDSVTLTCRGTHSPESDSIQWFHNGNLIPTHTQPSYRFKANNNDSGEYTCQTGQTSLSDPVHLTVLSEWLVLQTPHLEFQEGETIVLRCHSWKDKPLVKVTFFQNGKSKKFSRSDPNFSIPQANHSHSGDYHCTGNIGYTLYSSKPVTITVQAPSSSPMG
# assay_text: competition ELISA, competitor 063
Report as a plain number; the unit % is understood.

Study these solved cases before continuing.
binder="Antibody 038 (antibody, human IgG1, V domains shown, Human antibody; also called HuMab 038) VH: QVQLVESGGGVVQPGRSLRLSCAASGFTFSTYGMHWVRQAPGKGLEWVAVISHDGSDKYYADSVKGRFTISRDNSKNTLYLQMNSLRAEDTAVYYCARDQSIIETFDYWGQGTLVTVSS VL: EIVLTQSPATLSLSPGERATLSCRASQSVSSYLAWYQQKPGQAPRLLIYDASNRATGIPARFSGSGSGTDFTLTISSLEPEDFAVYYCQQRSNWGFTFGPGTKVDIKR" u=% measured=283
binder="Antibody 026 (antibody, V domains shown, Human antibody; also called HuMab 026) VH: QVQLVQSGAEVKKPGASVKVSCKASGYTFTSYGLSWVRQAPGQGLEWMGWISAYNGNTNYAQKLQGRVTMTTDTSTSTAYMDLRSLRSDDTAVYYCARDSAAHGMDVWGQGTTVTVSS VL: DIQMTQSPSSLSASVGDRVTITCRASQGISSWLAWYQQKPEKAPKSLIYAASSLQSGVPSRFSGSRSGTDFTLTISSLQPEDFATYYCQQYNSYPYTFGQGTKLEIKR" u=% measured=27
binder="Antibody 053 (antibody, human IgG1, V domains shown, Human antibody; also called HuMab 053) VH: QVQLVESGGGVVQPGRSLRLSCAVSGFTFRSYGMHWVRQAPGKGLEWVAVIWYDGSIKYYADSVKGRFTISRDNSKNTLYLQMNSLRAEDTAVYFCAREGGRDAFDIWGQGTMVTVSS VL: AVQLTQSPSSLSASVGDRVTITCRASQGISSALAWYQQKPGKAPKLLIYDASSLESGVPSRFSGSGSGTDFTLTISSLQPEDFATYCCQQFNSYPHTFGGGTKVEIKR" u=% measured=43
binder="Antibody 020 (antibody, V domains shown, also called HuMab 020) VH: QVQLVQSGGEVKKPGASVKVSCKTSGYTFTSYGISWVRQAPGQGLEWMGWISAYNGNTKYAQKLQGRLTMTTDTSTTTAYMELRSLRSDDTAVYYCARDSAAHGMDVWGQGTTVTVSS VL: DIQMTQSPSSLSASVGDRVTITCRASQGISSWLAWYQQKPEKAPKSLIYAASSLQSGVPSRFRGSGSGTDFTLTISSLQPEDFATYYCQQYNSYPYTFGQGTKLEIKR" u=% measured=42

Switching to the query record.
State, in one line, measured % residual binding of Antibody 028 (antibody, V domains shown, List 1 gives no VL for antibody 028; The VL is therefore uncertain; also called HuMab 028) VH: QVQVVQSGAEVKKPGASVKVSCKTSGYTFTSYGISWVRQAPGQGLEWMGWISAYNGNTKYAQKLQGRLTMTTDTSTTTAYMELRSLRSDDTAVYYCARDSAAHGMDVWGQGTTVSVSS VL: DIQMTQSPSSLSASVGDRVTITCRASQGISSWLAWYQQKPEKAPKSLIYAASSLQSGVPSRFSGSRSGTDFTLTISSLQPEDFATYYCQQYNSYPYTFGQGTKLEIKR
45
